tested on: DNA topoisomerase II (Homo sapiens) (UniProt P11388+Q02880)
protocol text: Inhibition of human DNA topoisomerase II
Type: protein assay
The following compounds are listed with their measured ID50 values.
Unit µM implied. Number only.

[
  {
    "structure smiles string": "COc1cc([C@@H]2c3cc4c(cc3[C@@H](NCc3ccccc3)[C@H]3COC(=O)[C@H]23)OCO4)cc(OC)c1O",
    "ID50 (µM)": 25
  },
  {
    "structure smiles string": "COc1cc([C@@H]2c3cc4c(cc3[C@@H](NCc3cccc(Cl)c3)[C@H]3COC(=O)[C@H]23)OCO4)cc(OC)c1O",
    "ID50 (µM)": 50
  },
  {
    "structure smiles string": "COc1cc([C@@H]2c3cc4c(cc3[C@@H](NCc3ccc(C(F)(F)F)cc3)[C@H]3COC(=O)[C@H]23)OCO4)cc(OC)c1O",
    "ID50 (µM)": 100
  },
  {
    "structure smiles string": "COc1cc([C@@H]2c3cc4c(cc3[C@@H](NCc3ccc(C#N)cc3)[C@H]3COC(=O)[C@H]23)OCO4)cc(OC)c1O",
    "ID50 (µM)": 25
  },
  {
    "structure smiles string": "COc1cc([C@@H]2c3cc4c(cc3[C@@H](NCc3cccc(F)c3)[C@H]3COC(=O)[C@H]23)OCO4)cc(OC)c1O",
    "ID50 (µM)": 25
  }
]

Query COc1cc([C@@H]2c3cc4c(cc3[C@@H](NCc3cccc([N+](=O)[O-])c3)[C@H]3COC(=O)[C@H]23)OCO4)cc(OC)c1O yields ID50 of 25

Query COc1cc([C@@H]2c3cc4c(cc3[C@@H](NCc3ccccc3N)[C@H]3COC(=O)[C@H]23)OCO4)cc(OC)c1O yields ID50 of 25

----------
The following compounds are listed with their measured Complex formation values.
Test system: Nucleic Acid
protocol text: % complex formation of cellular protein -DNA complex at a concentration of 10 uM
Format: functional
experimental parameters: Homo sapiens
Unit % implied. Number only.

Query COc1cc([C@@H]2c3cc4c(cc3[C@@H](Nc3ccc(N)cc3)[C@H]3COC(=O)[C@H]23)OCO4)cc(OC)c1O yields Complex formation of 330

Query COc1cc([C@@H]2c3cc4c(cc3[C@@H](NCc3ccccc3N)[C@H]3COC(=O)[C@H]23)OCO4)cc(OC)c1O yields Complex formation of 184

Query COc1cc([C@@H]2c3cc4c(cc3[C@@H](NCc3ccccc3)[C@H]3COC(=O)[C@H]23)OCO4)cc(OC)c1O yields Complex formation of 181
